Record: HepSE_cholecystitis reported on Hepatotoxicity.
ENDPOINT_NAME: HepSE_cholecystitis

1) COCCCC/C(=N\OCCN)c1ccc(C(F)(F)F)cc1 [FLUVOXAMINE] ... 1
2) CO[C@H]1/C=C/O[C@@]2(C)Oc3c(C)c(O)c4c(O)c(c(/C=N/N5CCN(C6CCCC6)CC5)c(O)c4c3C2=O)NC(=O)/C(C)=C\C=C\[C@H](C)[C@H](O)[C@@H](C)[C@@H](O)[C@@H](C)[C@H](OC(C)=O)[C@@H]1C [RIFAPENTINE] ... 0
3) CNC(=O)c1c(I)c(NC(C)=O)c(I)c(C(=O)[O-])c1I.[Na+] [IOTHALAMATE SODIUM] ... 0
4) CC(=O)O[C@]1(C(C)=O)CC[C@H]2[C@@H]3C=C(C)C4=CC(=O)CC[C@]4(C)[C@H]3CC[C@@]21C [MEGESTROL ACETATE] ... 0

###

Record: HepSE_Combined Scores reported on Hepatotoxicity.
ENDPOINT_NAME: HepSE_Combined Scores

1) CCCCC[C@H](O)/C=C/[C@H]1[C@H](O)CC(=O)[C@@H]1CCCCCCC(=O)O [ALPROSTADIL] ... 1
2) CO[C@@]1(NC(=O)Cc2cccs2)C(=O)N2C(C(=O)O)=C(COC(N)=O)CS[C@@H]21 [CEFOXITIN] ... 1
3) COc1cccc(C2(O)CCCCC2CN(C)C)c1 (configuration not stated) [TRAMADOL] ... 5
4) CC(C)OC(=O)C(C)(C)Oc1ccc(C(=O)c2ccc(Cl)cc2)cc1 [FENOFIBRATE] ... 7
5) CC(C)C[C@H](NC(=O)[C@@H](COC(C)(C)C)NC(=O)[C@H](Cc1ccc(O)cc1)NC(=O)[C@H](CO)NC(=O)[C@H](Cc1c[nH]c2ccccc12)NC(=O)[C@H](Cc1cnc[nH]1)NC(=O)[C@@H]1CCC(=O)N1)C(=O)N[C@@H](CCCNC(=N)N)C(=O)N1CCC[C@H]1C(=O)NNC(N)=O [GOSERELIN] ... 0
6) Cc1cn([C@H]2C=C[C@@H](CO)O2)c(=O)[nH]c1=O [STAVUDINE] ... 5
7) COc1ccc([C@@H]2Sc3ccccc3N(CCN(C)C)C(=O)[C@@H]2OC(C)=O)cc1 [DILTIAZEM] ... 0
8) COc1cc2nc(N3CCN(C(=O)C4CCCO4)CC3)nc(N)c2cc1OC (configuration not stated) [TERAZOSIN] ... 1
9) CN[C@@H]1CCc2[nH]c3ccc(C(N)=O)cc3c2C1 [FROVATRIPTAN] ... 0
10) NS(=O)(=O)c1cc(C2(O)NC(=O)c3ccccc32)ccc1Cl (configuration not stated) [CHLORTHALIDONE] ... 1
11) CC(C)N1CCN(c2ccc(OCC3COC(Cn4cncn4)(c4ccc(Cl)cc4Cl)O3)cc2)CC1 (configuration not stated) [TERCONAZOLE] ... 0
12) CN1CCN2c3ncccc3Cc3ccccc3C2C1 (configuration not stated) [MIRTAZAPINE] ... 3
13) CC1(C)S[C@@H]2[C@H](NC(=O)COc3ccccc3)C(=O)N2[C@H]1C(=O)O [PENICILLIN V] ... 0
14) CC(=O)N[C@H]1[C@H](OCCCO)OC(C(=O)O)=C[C@@H]1O ... 0
15) C=CC1=C(C(=O)O)N2C(=O)[C@@H](NC(=O)/C(=N\OCC(=O)O)c3csc(N)n3)[C@H]2SC1 [CEFIXIME] ... 3
16) Cc1cc(C2CCCCC2)n(O)c(=O)c1 [CICLOPIROX] ... 0
17) Nc1cc(Cl)c(N=C2NCCN2)c(Cl)c1 [APRACLONIDINE] ... 0
18) C[C@@H]1C[C@H]2[C@@H]3C[C@H](F)C4=CC(=O)C=C[C@]4(C)[C@@]3(F)[C@@H](O)C[C@]2(C)[C@@]1(O)C(=O)CO [FLUMETHASONE] ... 0
19) CCN(CC)CCOc1ccc(C(=C(Cl)c2ccccc2)c2ccccc2)cc1 [CLOMIPHENE] ... 1
20) CCN1C(=O)NC(c2ccccc2)C1=O (configuration not stated) [ETHOTOIN] ... 0
21) COc1ccc2c3c1O[C@H]1C[C@@H](O)C=C[C@@]31CCN(C)C2 [GALANTAMINE] ... 1
22) Cc1c(OCC(F)(F)F)ccnc1C[S+]([O-])c1nc2ccccc2[nH]1 (configuration not stated) [LANSOPRAZOLE] ... 4
23) Cc1c(C)c2c(c(C)c1O)CCC(C)(COc1ccc(CC3SC(=O)NC3=O)cc1)O2 (configuration not stated) [TROGLITAZONE] ... 3
24) CC(=O)Nc1nnc(S(N)(=O)=O)s1 [ACETAZOLAMIDE] ... 2
25) O=P(O)(O)C(O)(Cc1cccnc1)P(=O)(O)O [RISEDRONIC ACID] ... 0
26) Nc1nc(Cl)nc2c1ncn2[C@H]1C[C@H](O)[C@@H](CO)O1 [CLADRIBINE] ... 0
27) O=NN(CCCl)C(=O)NCCCl [CARMUSTINE] ... 1
